z-score reference
assay: S. cerevisiae RM11-1a growth modifiers, primary screen, strain RM11-1a, OD600, basal, 24 h (AID 1177); conditions: OD600, 24 h, higher = more signal, called active from +8 up or from −8 down;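 also: cultures grown under basal conditions with no added stressor; test concentration not given here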

compound	z-score
C=CC[C@@]12N=C(c3ccc(OCCCO)cc3)O[C@@H]1c1ccccc1N(C)C2=O	1.46
CCCC[C@@H]1C[C@H]1[C@@H](NC(=O)c1cccs1)c1ccc(-c2ccccc2)cc1	0.822
CCCCN1CC=CC23O[C@@H]4C=CCCOC(=O)C4[C@H]2C(=O)N(CCCCCCO)[C@@H]3C1=O (some centres undefined)	0.308
COC(=O)[C@@]1(Cc2ccc(OC)cc2)[C@H]2c3cc(C(=O)N(C)C)n(C)c3C[C@H]2CN1C(=O)c1ccccc1	0.241
CN(C)CCCC[C@@H]1NC(=O)[C@H]2C[C@@H](C(=O)NCCCCCCN)[C@@H](c3ccc(O)cc3)N2C1=O	0.578
CC(=O)n1cc(C(O)C2C=CC3C(=O)N(c4ccccc4)C(=O)C3N2Nc2ccc([N+](=O)[O-])cc2)c2ccccc21 (centres undefined)	0.241
N#Cc1ccc(NN2C(C(O)C(c3ccccc3)c3ccccc3)C=CC3C(=O)N(c4ccccc4)C(=O)C32)cc1 (centres undefined)	0.826
CN1C(=O)C2C=CC(C(O)c3ccco3)N(Nc3ccccc3)C2C1=O (centres undefined)	1.61
CCCCCN1CC=CC23O[C@@H]4C=CCCOC(=O)C4[C@H]2C(=O)N(CCCCCO)[C@@H]3C1=O (some centres undefined)	0.467
Cc1ccc(S[C@]2(C(=O)NCCCN(C)C)CC(=O)N(Cc3cc(C(F)(F)F)cc(C(F)(F)F)c3)[C@@H]2c2ccc(CO)cc2)cc1	-0.607
C=C(COC)/C(=C/C[C@@H](OC(=O)c1ccncc1)c1ccc(CO)o1)c1cc(C(=O)OC)ccc1OC	0.0707
C=C(CCCC)C(=O)CC[C@@H](OC(=O)c1ccccc1-c1ccccc1C(=O)O)c1ccc(OCCO)cc1	-0.585
COCCOC(=O)N1C(=O)[C@@]2(c3cc(C#CCC(C(=O)OC)C(=O)OC)ccc31)[C@H](C(=O)Nc1nc3ccccc3s1)[C@H]1C(=O)O[C@H](c3ccccc3)[C@H](c3ccccc3)N1[C@@H]2c1ccccc1OCCO	2.8
COC(=O)[C@@]1(Cc2ccc(OC)cc2)[C@H]2c3cc(C(=O)N(C)C)n(Cc4ccccn4)c3C[C@H]2CN1C(=O)c1ccccc1	0.607
CCCCCN1CC=CC23O[C@@H]4/C=C\CCC(C)OC(=O)C4[C@H]2C(=O)N(C(C)CO)[C@@H]3C1=O (some centres undefined)	0.449
O=C1NC(=O)C2C1C=CC(C(O)c1cccs1)N2Nc1ccc(Cl)cc1Cl (centres undefined)	1.45
C[N+](C)(C)CCCCNC(=O)[C@@H]1C[C@@H]2C(=O)N[C@@H](Cc3ccccc3)C(=O)N2[C@@H]1c1cccc(OCCO)c1	0.145
O=C(NCCN1CCOCC1)C1N=C(c2ccc(OCCCO)cc2)N(c2ccccc2)O1 (centres undefined)	-0.377
C=CCOC(=O)[C@@H]1[C@H]2C(=O)O[C@H](c3ccccc3)[C@H](c3ccccc3)N2[C@H](c2ccc(OCCOC(=O)[C@H]3C[C@H]4C(=O)N5CCC[C@H]5C(=O)N4[C@H]3c3ccc(O)cc3)cc2)[C@@]12C(=O)Nc1ccc(I)cc12	1.27
COCCOC(=O)N1C(=O)[C@@]2(c3ccccc31)[C@H](c1ccccc1OCCO)N1[C@H](c3ccccc3)[C@H](c3ccccc3)OC(=O)[C@H]1[C@@H]2C(=O)N1CCN(c2ncccn2)CC1	3.08
CC(C)N1C(=O)[C@@]2(Cc3ccccc31)c1ccccc1C(=O)N(Cc1ccccc1Cl)[C@H]2c1ccc(CO)cc1	-1.6
COc1cc(NN2C(C(O)c3ccco3)C=CC3C(=O)N(c4ccccc4)C(=O)C32)cc(OC)c1OC (centres undefined)	0.178
COc1ccc(/C=C/C=O)cc1	0.313
CC(C)[Si](C#Cc1ccc(Oc2ccccc2)cc1)(O[Si](C#Cc1ccc(Oc2ccccc2)cc1)(C(C)C)C(C)C)C(C)C	1.88
COC(=O)[C@@]1(Cc2ccccc2)[C@H]2c3cc(C(=O)N(C)C)n(Cc4ccsc4Br)c3C[C@H]2CN1C(=O)c1ccccc1	1.24
COC(=O)C(CC#Cc1ccc2c(c1)[C@]1(C(=O)N2)[C@H](c2ccc(OCCO)cc2)N2[C@H](c3ccccc3)[C@H](c3ccccc3)OC(=O)[C@H]2[C@@H]1C(=O)Nc1nc2ccccc2s1)C(=O)OC	3.16
C[C@@]1([C@@H](NC(=O)c2ccc(-c3ccccc3)cc2)c2ccc(Cl)cc2)C[C@H]1C1CCCCC1	2
C=CCNC(=O)[C@@H]1[C@H]2C(=O)O[C@H](c3ccccc3)[C@H](c3ccccc3)N2[C@H](c2ccccc2OCCO)[C@@]12C(=O)N(C(=O)OCCOC)c1ccccc12	3.27
C=C(C(=O)CC[C@@H](OC(=O)c1cccnc1)c1ccccc1OCCO)C(C)C	-0.337
